# System: SW-1736
# procedure.summary: Cytotoxicity against human SW1736 cells assessed as cell viability after 96 hrs by SRB assay
# Assay type: functional, cell-based
# recorded.conditions: sw-1736
endpoint.label: IC50 (µM)
Give a bare numeral; the unit µM is implied.

Would you kindly share the measured IC50 for C=CCN(CC#C[C@@H](O)[C@]12CC[C@@H](C(=C)C)[C@@H]1[C@H]1CC[C@@H]3[C@@]4(C)CC[C@H](OC(C)=O)C(C)(C)[C@@H]4CC[C@@]3(C)[C@]1(C)CC2)CC=C ?
30.2

----------
# Test system: 8505C
# procedure.summary: Cytotoxicity against human 8505C cells assessed as cell viability after 96 hrs by SRB assay
# Assay type: functional, cell-based
# recorded.conditions: 8505c
endpoint.label: IC50 (µM)
Give a bare numeral; the unit µM is implied.

Please tell me: IC50 of C=CCN(CC#C[C@@H](O)[C@]12CC[C@@H](C(=C)C)[C@@H]1[C@H]1CC[C@@H]3[C@@]4(C)CC[C@H](OC(C)=O)C(C)(C)[C@@H]4CC[C@@]3(C)[C@]1(C)CC2)CC=C , system 8505C?
47.9

----------
# Test system: MCF7
# procedure.summary: Cytotoxicity against human MCF7 cells assessed as cell viability after 96 hrs by SRB assay
# Format: functional, cell-based
# recorded.conditions: Homo sapiens, MCF7, 96 h
endpoint.label: IC50 (µM)
Give a bare numeral; the unit µM is implied.

C#C[C@H](O)[C@]12CC[C@@H](C(=C)C)[C@@H]1[C@H]1CC[C@@H]3[C@@]4(C)CC[C@H](OC(C)=O)C(C)(C)[C@@H]4CC[C@@]3(C)[C@]1(C)CC2; 20.5

Would you kindly share the measured IC50 for C#C[C@H](O)[C@]12CC[C@@H](C(=C)C)[C@@H]1[C@H]1CC[C@@H]3[C@@]4(C)CCC(=O)C(C)(C)[C@@H]4CC[C@@]3(C)[C@]1(C)CC2 ?
17.1

Would you kindly share the measured IC50 for C=C(C)[C@@H]1CC[C@]2([C@@H](O)C#CCN(CCC)CCC)CC[C@]3(C)[C@H](CC[C@@H]4[C@@]5(C)CC[C@H](OC(C)=O)C(C)(C)[C@@H]5CC[C@]43C)[C@@H]12.CI ?
3.2

----------
Consider the following molecules and their measured IC50 readings.
# System: A549
# procedure.summary: Cytotoxicity against human A549 cells assessed as cell viability after 96 hrs by SRB assay
# Type: functional, cell-based
# recorded.conditions: Homo sapiens, A549, 96 h
Give a bare numeral; the unit µM is implied.

C#C[C@H](O)[C@]12CC[C@@H](C(=C)C)[C@@H]1[C@H]1CC[C@@H]3[C@@]4(C)CCC(=O)C(C)(C)[C@@H]4CC[C@@]3(C)[C@]1(C)CC2; 21.2
C#C[C@H](O)[C@]12CC[C@@H](C(=C)C)[C@@H]1[C@H]1CC[C@@H]3[C@@]4(C)CC[C@H](O)C(C)(C)[C@@H]4CC[C@@]3(C)[C@]1(C)CC2; 20.4
C=C(C)[C@@H]1CC[C@]2([C@H](O)C#CCN3CCOCC3)CC[C@]3(C)[C@H](CC[C@@H]4[C@@]5(C)CC[C@H](OC(C)=O)C(C)(C)[C@@H]5CC[C@]43C)[C@@H]12.Cl; 7.6

Would you kindly share the measured IC50 for C=C(C)[C@@H]1CC[C@]2([C@H](O)C#CCN(C(C)C)C(C)C)CC[C@]3(C)[C@H](CC[C@@H]4[C@@]5(C)CC[C@H](O)C(C)(C)[C@@H]5CC[C@]43C)[C@@H]12 ?
8.3

Would you kindly share the measured IC50 for C=C(C)[C@@H]1CC[C@]2([C@@H](O)C#CCN(CCC)CCC)CC[C@]3(C)[C@H](CC[C@@H]4[C@@]5(C)CC[C@H](OC(C)=O)C(C)(C)[C@@H]5CC[C@]43C)[C@@H]12.CI ?
4.5

All values here come from ChEMBL document CHEMBL2321859.
